Molecular target: HLA-A*26:01
Assay: IEDB peptide-MHC binding, purified MHC/direct/fluorescence; filed as Kd, often an IC50 or EC50 that approximates it; bounds were set here for any values at or beyond the usual limits of such assays
Settings: source organism: Pseudomonas aeruginosa
pKd: −log10 of the molar value.
Recorded Endpoint: pKd

[[record]]
query_sequence = "SEYKAAGYL"
recorded_endpoint = "pKd"
result = "≤ 4.70"

[[record]]
query_sequence = "GEDDDMLPW"
recorded_endpoint = "pKd"
result = "≤ 4.70"


* * *

Target: HLA-A*02:12
Assay: IEDB peptide-MHC binding, purified MHC/competitive/fluorescence; filed as Kd, often an IC50 or EC50 that approximates it; bounds were set here for any values at or beyond the usual limits of such assays
Conditions: source organism: Giardia lamblia ATCC 50803
Recorded Endpoint: Kd

[[record]]
query_sequence = "TEDDWITYI"
assay_target = "HLA-A*02:12"
recorded_endpoint = "Kd"
result = "≥ 20 µM"


* * *

Target: HLA-B*40:01
Assay: IEDB peptide-MHC binding, purified MHC/competitive/fluorescence; filed as Kd, often an IC50 or EC50 that approximates it; bounds were set here for any values at or beyond the usual limits of such assays
Details: source organism: Salmonella enterica subsp. enterica serovar Typhi
pKd: −log10 of the molar value.
Recorded Endpoint: pKd

[[record]]
query_sequence = "HEAEYNLSL"
recorded_endpoint = "pKd"
numeric_result = 8.34


* * *

Biological target: HLA-B*27:05
Experiment: IEDB peptide-MHC binding, purified MHC/direct/fluorescence; filed as Kd, often an IC50 or EC50 that approximates it; bounds were set here for any values at or beyond the usual limits of such assays
Conditions: source organism: Vibrio vulnificus
Recorded Endpoint: Kd

[[record]]
query_sequence = "KVMALPIPH"
assay_target = "HLA-B*27:05"
result = "≥ 20 µM"


* * *

Target: HLA-B*51:01
Assay: IEDB peptide-MHC binding, purified MHC/competitive/fluorescence; filed as Kd, often an IC50 or EC50 that approximates it; bounds were set here for any values at or beyond the usual limits of such assays
Details: source organism: Canarypox virus
Recorded Endpoint: Kd

[[record]]
query_sequence = "YMMDGNECP"
assay_target = "HLA-B*51:01"
result = "≥ 20 µM"


* * *

Target: HLA-A*02:01
Experiment: IEDB peptide-MHC binding, purified MHC/direct/fluorescence; filed as Kd, often an IC50 or EC50 that approximates it; bounds were set here for any values at or beyond the usual limits of such assays
Conditions: source organism: Mus musculus
pKd: −log10 of the molar value.
Recorded Endpoint: pKd

[[record]]
query_sequence = "VLWKSYPLV"
assay_target = "HLA-A*02:01"
numeric_result = 9.52


* * *

Target: HLA-A*29:02
Assay: IEDB peptide-MHC binding, purified MHC/competitive/fluorescence; filed as Kd, often an IC50 or EC50 that approximates it; bounds were set here for any values at or beyond the usual limits of such assays
Conditions: source organism: Homo sapiens
pKd: −log10 of the molar value.
Recorded Endpoint: pKd

[[record]]
query_sequence = "YFEYIEENKY"
recorded_endpoint = "pKd"
result = "≥ 10.00"


* * *

Molecular target: HLA-B*51:01
Experiment: IEDB peptide-MHC binding, purified MHC/competitive/fluorescence; filed as Kd, often an IC50 or EC50 that approximates it; bounds were set here for any values at or beyond the usual limits of such assays
Conditions: source organism: Helicobacter pylori 26695
Recorded Endpoint: Kd

[[record]]
query_sequence = "GIVCYNEEV"
assay_target = "HLA-B*51:01"
recorded_endpoint = "Kd"
result = "≥ 20 µM"

